- targetOfAssay: Sterol O-acyltransferase 1 (Cricetulus griseus, UniProt Q60457)
- Sequence (Q60457 whole entry): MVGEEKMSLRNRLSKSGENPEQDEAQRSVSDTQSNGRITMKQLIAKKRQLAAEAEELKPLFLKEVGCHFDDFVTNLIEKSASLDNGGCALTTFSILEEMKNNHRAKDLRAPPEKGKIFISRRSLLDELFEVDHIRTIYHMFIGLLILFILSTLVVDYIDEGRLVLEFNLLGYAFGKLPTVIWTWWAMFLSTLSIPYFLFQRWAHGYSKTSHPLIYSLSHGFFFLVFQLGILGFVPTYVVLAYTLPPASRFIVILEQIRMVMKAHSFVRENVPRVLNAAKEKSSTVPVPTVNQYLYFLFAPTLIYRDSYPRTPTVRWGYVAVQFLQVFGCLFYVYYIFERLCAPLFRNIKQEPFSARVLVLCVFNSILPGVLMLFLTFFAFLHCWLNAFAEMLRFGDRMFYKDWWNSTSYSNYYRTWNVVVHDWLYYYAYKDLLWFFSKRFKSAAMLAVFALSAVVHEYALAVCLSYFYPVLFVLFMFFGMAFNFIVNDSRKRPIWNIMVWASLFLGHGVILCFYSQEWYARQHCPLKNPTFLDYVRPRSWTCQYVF
propertyMeasured: IC50 (nM)
Reply numerically in nM, unit not repeated.

Incoming: Fill blank: measured IC50 of the molecule Cc1cc(C)n(CCCCCSc2nc(-c3ccccc3)c(-c3ccccc3)[nH]2)n1 is ____.
Outgoing: 12
